# Test system: HEK-293T
# Experiment: Multiplex assay against HEK293T
# Format: toxicity, cell-based
# Experimental parameters: human, 12 h, 10 µM, compound concentration 10 uM, replicate 2
Recorded endpoint: Population Hoechst High Intensity Objects (%)

[
  {
    "Molecule": "Cc1sc2c(c1C)C(c1ccc(Cl)cc1)=N[C@H](CC(=O)OC(C)(C)C)c1nnc(C)n1-2",
    "Data value": 10
  },
  {
    "Molecule": "CCc1nn2c(C)cc(C)nc2c1Cc1ccc(-c2nnc(C3CCNCC3)o2)cc1",
    "Data value": 12
  },
  {
    "Molecule": "N[C@](CC1c2ccccc2Oc2ccccc21)(C(=O)O)[C@H]1C[C@@H]1C(=O)O",
    "Data value": 7
  },
  {
    "Molecule": "CN1C[C@H](C(=O)N[C@]2(C)O[C@@]3(O)[C@@H]4CCCN4C(=O)[C@H](Cc4ccccc4)N3C2=O)C[C@@H]2c3cccc4[nH]cc(c34)C[C@H]21.CS(=O)(=O)O [DIHYDROERGOTAMINE MESYLATE]",
    "Data value": 11
  },
  {
    "Molecule": "CSc1nc(NC2CCCC2)c([N+](=O)[O-])c(NC2CCCC2)n1",
    "Data value": 5
  },
  {
    "Molecule": "COc1c(Nc2ccc(S(C)(=O)=O)nc2C)ncnc1OC1CCN(C(=O)OC(C)C)CC1",
    "Data value": 25
  },
  {
    "Molecule": "C=CCN1C[C@H](C(=O)N(CCCN(C)C)C(=O)NCC)C[C@@H]2c3cccc4[nH]cc(c34)C[C@H]21",
    "Data value": 8
  },
  {
    "Molecule": "Cc1cc(=O)n(C)c2cc(N3C(=O)CC[C@H](NS(=O)(=O)CC(C)C)[C@H]3c3ccc(Cl)cc3)ccc12",
    "Data value": 16
  },
  {
    "Molecule": "O=C(NCCNCC(O)COc1ccc(O)cc1)N1CCOCC1.O=C(NCCNCC(O)COc1ccc(O)cc1)N1CCOCC1.O=C(O)/C=C/C(=O)O (stereo unspecified) [XAMOTEROL FUMARATE]",
    "Data value": 5
  },
  {
    "Molecule": "CN(C)C/C=C/C(=O)Nc1ccc(C(=O)N2CCCC(Nc3ncc(Cl)c(-c4c[nH]c5ccccc45)n3)C2)cc1 (stereo unspecified)",
    "Data value": 29
  },
  {
    "Molecule": "COCCn1c(C)c(C)s/c1=N\\C(=O)C1C(C)(C)C1(C)C",
    "Data value": 11
  },
  {
    "Molecule": "Cc1cc(O)c(-c2ccc([C@@H](C)CN(C)C)cc2)c2c1[nH]c(=O)c1sccc12",
    "Data value": 28
  },
  {
    "Molecule": "COc1cc(Nc2ncc3c(n2)-c2ccc(Cl)cc2C(c2c(F)cccc2OC)=NC3)ccc1C(=O)O",
    "Data value": 15
  },
  {
    "Molecule": "CCCCC[C@H](O)/C=C/[C@H]1[C@H](O)CC(=O)[C@@H]1CCCCCCC(=O)O",
    "Data value": 9
  },
  {
    "Molecule": "CN1CCN(c2ccc(Nc3c4ccccc4nc4ccccc34)cc2)CC1.Cl.Cl.O",
    "Data value": 0
  },
  {
    "Molecule": "Cc1c(Cc2ccc3ccccc3n2)c2cc(F)ccc2n1CC(=O)O",
    "Data value": 5
  }
]
